Hey, just so you know, these numbers are from patent US8952008B2.

Target: GABRA2-GABRB2-GABRG2 chloride currents in HEK cells (Homo sapiens (Human), UniProt P18507+P47869)
Sequence (P47869 29-451): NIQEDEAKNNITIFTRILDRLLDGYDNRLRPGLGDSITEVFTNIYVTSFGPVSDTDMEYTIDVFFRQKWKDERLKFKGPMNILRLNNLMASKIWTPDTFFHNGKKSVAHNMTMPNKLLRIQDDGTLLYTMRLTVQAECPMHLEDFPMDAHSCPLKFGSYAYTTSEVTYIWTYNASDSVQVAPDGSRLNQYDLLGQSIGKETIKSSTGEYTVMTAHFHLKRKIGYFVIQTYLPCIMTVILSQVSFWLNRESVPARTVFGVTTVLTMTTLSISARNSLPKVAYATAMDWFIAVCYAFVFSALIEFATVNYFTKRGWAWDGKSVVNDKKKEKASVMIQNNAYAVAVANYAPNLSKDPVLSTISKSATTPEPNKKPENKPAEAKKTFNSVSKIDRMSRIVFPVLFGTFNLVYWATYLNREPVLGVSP
Sequence (P47870 26-512 partner): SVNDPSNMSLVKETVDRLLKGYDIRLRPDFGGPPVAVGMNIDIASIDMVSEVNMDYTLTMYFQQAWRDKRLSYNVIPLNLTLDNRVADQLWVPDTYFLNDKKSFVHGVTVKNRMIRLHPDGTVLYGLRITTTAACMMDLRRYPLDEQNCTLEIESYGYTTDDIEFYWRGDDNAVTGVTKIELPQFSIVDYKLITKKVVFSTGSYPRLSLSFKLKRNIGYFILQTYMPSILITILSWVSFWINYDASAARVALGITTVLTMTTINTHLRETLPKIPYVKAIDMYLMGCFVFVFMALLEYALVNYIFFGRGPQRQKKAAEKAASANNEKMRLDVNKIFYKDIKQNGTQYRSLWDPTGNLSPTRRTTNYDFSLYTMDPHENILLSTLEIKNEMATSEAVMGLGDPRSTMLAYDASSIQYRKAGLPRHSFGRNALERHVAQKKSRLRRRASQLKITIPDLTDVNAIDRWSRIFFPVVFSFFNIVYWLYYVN
Sequence (P18507 40-475): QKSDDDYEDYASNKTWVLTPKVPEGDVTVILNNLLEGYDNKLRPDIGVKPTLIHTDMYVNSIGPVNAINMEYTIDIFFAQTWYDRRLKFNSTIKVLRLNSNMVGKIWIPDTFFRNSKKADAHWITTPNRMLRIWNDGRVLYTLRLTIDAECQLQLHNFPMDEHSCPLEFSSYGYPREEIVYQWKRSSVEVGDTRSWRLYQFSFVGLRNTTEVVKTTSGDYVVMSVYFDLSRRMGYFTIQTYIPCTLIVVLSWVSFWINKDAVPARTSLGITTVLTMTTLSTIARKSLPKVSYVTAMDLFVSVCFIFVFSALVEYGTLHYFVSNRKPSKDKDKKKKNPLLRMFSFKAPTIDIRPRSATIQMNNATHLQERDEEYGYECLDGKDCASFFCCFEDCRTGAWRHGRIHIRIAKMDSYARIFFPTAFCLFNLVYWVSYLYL
Assay: QPatch electrophysiological recording, % enhancement of GABA current (α2 PAM)
Type: cell-based
Conditions: approximately EC10 GABA, −60 mV, whole-cell patch clamp
Would you mind telling me the reported α2 PAM (%) of each entry?
State just the number; it will be interpreted in %.

Lookup: GET /values?readout=α2 PAM (%)&item= CCn1cnc2c(-c3ccc(F)c(-c4ccc(S(=O)(=O)C(C)C)cc4)c3)cnnc21
Found: 124

Lookup: GET /values?readout=α2 PAM (%)&item= CC(C)n1cnc2c(-c3ccc(F)c(-c4ccc(S(N)(=O)=O)cc4)c3)cnnc21
Found: 77.2

Lookup: GET /values?readout=α2 PAM (%)&item= CS(=O)(=O)c1ccc(-c2cc(-c3cnnc4c3ncn4C3CC3)ccc2F)cc1
Found: 31.6

Lookup: GET /values?readout=α2 PAM (%)&item= CCn1cnc2c(-c3ccc(F)c(-c4ccc(S(=O)(=O)CC)cc4C#N)c3)cnnc21
Found: 46.7

Lookup: GET /values?readout=α2 PAM (%)&item= CCn1cnc2c(-c3ccc(O)c(-c4ccc(S(=O)(=O)CC)cc4OC)c3)cnnc21
Found: 47.8

Lookup: GET /values?readout=α2 PAM (%)&item= COc1cc(S(C)(=O)=O)ccc1-c1cc(-c2cnnc3c2ncn3C(C)C)ccc1F
Found: 62.5

Lookup: GET /values?readout=α2 PAM (%)&item= CCn1cnc2c(-c3ccc(F)c(-c4ccc(S(=O)(=O)CC)cc4F)c3)cnnc21
Found: 39.4

Lookup: GET /values?readout=α2 PAM (%)&item= CCn1cnc2c(-c3ccc(F)c(-c4ccc(S(C)(=O)=O)cc4F)c3)cnnc21
Found: 1.69

---

Biological target: human recombinant GABA A receptor containing the alpha2, beta2, and gamma3 subunits (Homo sapiens, UniProt P47869+Q99928)
Test: Radioligand competition binding assay with [3H]Ro-15-1788 (Flumazenil);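 note: membranes from HEK cells expressing the receptor, incubated with radioligand to equilibrium, filter-bound radioactivity counted, Ki reported as geometric mean of replicate runs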
READOUT: pKi
pKi is a log-scale quantity: -log10 of the concentration expressed in molar.

Lookup: GET /values?readout=pKi&item= CCS(=O)(=O)c1ccc(-c2cc(-c3cnnc4c3ncn4C3CCC3)ccc2F)cc1 [Example 28]
Found: 7.13

Lookup: GET /values?readout=pKi&item= CCn1cnc2c(-c3ccc(F)c(-c4ccc(S(=O)(=O)C(C)C)cc4)c3)cnnc21 [Example 1]
Found: 7.51

Lookup: GET /values?readout=pKi&item= CCn1cnc2c(-c3cccc(-c4ccc(S(C)(=O)=O)cc4)c3)cnnc21 [Example 16]
Found: 7.25

Lookup: GET /values?readout=pKi&item= CCS(=O)(=O)c1ccc(-c2cc(-c3cnnc4c3ncn4C(C)C)ccc2F)c(F)c1 [Example 34]
Found: 7.46

Lookup: GET /values?readout=pKi&item= CCS(=O)(=O)c1ccc(-c2cc(-c3cnnc4c3ncn4C3CCCC3)ccc2F)c(OC)c1 [Example 43]
Found: 6.93

Lookup: GET /values?readout=pKi&item= CCS(=O)(=O)c1ccc(-c2cc(-c3cnnc4c3ncn4C(C)C)ccc2F)c(OC)c1 [Example 40]
Found: 7.85

Lookup: GET /values?readout=pKi&item= CCn1cnc2c(-c3ccc(F)c(-c4ccc(S(=O)(=O)CC)cc4C#N)c3)cnnc21 [Example 11]
Found: 7.41

Lookup: GET /values?readout=pKi&item= CCn1cnc2c(-c3cccc(-c4ccc5c(c4)CCS5(=O)=O)c3)cnnc21 [Example 17]
Found: 6.99

Lookup: GET /values?readout=pKi&item= CCS(=O)(=O)c1ccc(-c2cc(-c3cnnc4c3ncn4C3CCC3)ccc2F)c(F)c1 [Example 26]
Found: 6.83
